Tested on: HT-29
protocol.description: NCI tumour cell line growth inhibition, 48 h
Active and inactive are the calls of the source. No stated cut-off is given here; in the data, active = GI50 up to about 1.1 µM and inactive = higher.
measurement.kind: GI50

> print(dat)
                                    compound               result
 1  COCOc1ccc(C2(O)Oc3cc(OCOC)ccc3C2C)c(O)c1 (stereo unspecified)   18.1 µM (inactive)
 2        CC1(C)C(=O)N=C(N)N1C(=O)OCc1ccccc1  > 100 µM (inactive)
 3  C[C@]12CCCC(=O)C1(O)C[C@H](C(=O)O)CC2 (stereo partly specified)  > 100 µM (inactive)
 4  O=C(c1ccc(Cl)cc1Cl)N(/N=C/C=C/c1ccccc1)c1nnc(-c2ccccc2)c(-c2ccccc2)n1  > 100 µM (inactive)
 5  CC(C)c1cccc(C(C)C)c1NC(=O)C(=O)Cc1nc2ccc([N+](=O)[O-])cc2nc1O  > 100 µM (inactive)
 6  O=C(NC(Nc1ccc(F)c(Cl)c1)(C(F)(F)F)C(F)(F)F)OCc1ccccc1     34 µM (inactive)
 7  COP(=O)(O)/C=C/C(NC(=O)C(Cl)(Cl)Cl)c1ccccc1 (stereo unspecified)  > 100 µM (inactive)
 8                          NCc1ccc(O)c(O)c1  > 100 µM (inactive)
 9  COc1ccc2cc(NC(=O)N/N=C\c3ccc(Cl)cc3)ccc2c1  > 100 µM (inactive)
10  C/C(=N\NC(=N)N)C(CN(CC(C)C)CC(C)C)C(=O)Nc1ccc(C)cc1C (stereo unspecified)  > 100 µM (inactive)
11               O=C1CCCC2=C(N1)C(=O)C=CC2=O   42.8 µM (inactive)

Ref: ChEMBL document CHEMBL1201862
